# System: Alopecurus myosuroides (ALOMY)
# Test summary: Post-emergence herbicidal activity, glasshouse
# Format: in vivo
# Test parameters: post-emergence spray after 8 days cultivation; rate 250 g/ha; evaluated after 13 days; 100=total damage to plant, 0=no damage to plant
Recorded endpoint: Post-Emergence Activity ALOMY

Compound | Endpoint result
Cc1cc(C)c(C2C(=O)CC(Cc3ccoc3)C2=O)c(C)c1 (stereo not shown) [Compound T2] | 60
Cc1cc(C)c(C2C(=O)C/C(=C\c3ccco3)C2=O)c(C)c1 (stereo not shown) [Compound T8] | 10
Cc1cc(C)c(C2C(=O)CC(Cc3cc(C)on3)C2=O)c(C)c1 (stereo not shown) [Compound T3] | 90
Cc1cc(C)c(C2C(=O)CC(Cc3ccc(C)o3)C2=O)c(C)c1 (stereo not shown) [Compound T4] | 40

* * *

# System: Lolium perenne (LOLPE)
# Test summary: Pre-emergence herbicidal activity, glasshouse
# Type: in vivo
# Test parameters: pre-emergence spray after one day cultivation; rate 250 g/ha; evaluated after 13 days; 100=total damage to plant, 0=no damage to plant
Overview of recorded Pre-Emergence Activity LOLPE for various molecules

Molecule | Pre-Emergence Activity LOLPE
COC1=C(c2c(C)cc(C)cc2C)C(=O)C(C(O)c2cc(C)c(C)o2)C1 (stereo not shown) [Compound P1] | 40
Cc1cc(C)c(C2=C(OC(=O)C(C)(C)C)C/C(=C\c3ccoc3)C2=O)c(C)c1 [Compound P2] | 90
Cc1cc(C)c(C2C(=O)CC(Cc3ccoc3)C2=O)c(C)c1 (stereo not shown) | 80
Cc1cc(C)c(C2C(=O)CC(Cc3cc(C)on3)C2=O)c(C)c1 (stereo not shown) | 100
